- target-desc: Recombinant human renin (Homo sapiens, UniProt P00797)
- Construct: isolate the active form (residues 67-406); made in house; host or cells: FreeStyle 293-F cells (transient expression of pcDNA3.1(+)/hREN)
- Sequence (P00797 67-406): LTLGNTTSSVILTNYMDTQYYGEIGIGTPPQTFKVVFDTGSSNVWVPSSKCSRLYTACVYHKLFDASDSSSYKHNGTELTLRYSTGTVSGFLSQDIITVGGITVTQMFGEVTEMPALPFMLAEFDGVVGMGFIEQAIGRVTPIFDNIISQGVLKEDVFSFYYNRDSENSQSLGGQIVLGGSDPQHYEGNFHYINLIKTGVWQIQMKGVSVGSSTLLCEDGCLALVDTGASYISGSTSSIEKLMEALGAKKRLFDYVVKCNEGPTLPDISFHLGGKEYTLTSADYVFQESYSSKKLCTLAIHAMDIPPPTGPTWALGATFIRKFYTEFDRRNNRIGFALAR
- measurement-description: In vitro enzymatic activity assay of renin inhibitors (fluorogenic peptide substrate)
- Assay type: biochemical
- experimental-setup: read-out: IC50 of Exemplified Compounds Against Renin
pIC50: −log10 of the molar value.
pIC50 listing for selected molecules.

molecule	pIC50
COCCCn1c([C@@H]2CCCN(C(=O)[C@@H]3CN(S(=O)(=O)c4cc(Br)ccc4OC)C[C@H]3N)C2)nc2ccccc21 [Compound 401]	< 6.00
COCCCn1c([C@@H]2CCCN(C(=O)C[C@H](N)CNC(=O)Nc3ccccc3C(C)C)C2)nc2ccccc21 [Compound 301]	6.00 to 7.00
COCCCn1c([C@@H]2CCCN(C(=O)[C@@H]3CN(S(=O)(=O)c4ccc(-c5ccccc5)cc4)C[C@H]3N)C2)nc2ccccc21 [Compound 348]	6.00 to 7.00
COCCCn1c([C@@H]2CCCN(C(=O)C[C@H](N)Cc3ccc(-c4ccnc(Cl)c4)cc3)C2)nc2ccccc21 [Compound 133]	> 7.00
